Taken from ChEMBL document CHEMBL2429819.

Below, each entry is listed alongside its reported zone of inhibition at 100 µg/mL.
test system: Muscodor albus; assay: Antibacterial activity against Muscodor albus at 100 ug/ml after 24 hrs; assay type: functional; conditions: read-out: DIZ
Please respond with the number in mm and leave the unit unwritten.

O=C(CC(=O)c1cc(C(=O)CC(=O)c2ccc(Cl)cc2)c(O)cc1O)c1ccc(Cl)cc1 ... 15

// zone of inhibition at 100 µg/mL value for "Cc1ccc(-c2cc(-c3cc(-c4cc(-c5ccc(C)cc5)on4)c(O)cc3O)no2)cc1" : 14.7

// zone of inhibition at 100 µg/mL value for "Oc1cc(O)c(-c2cc(-c3cccnc3)on2)cc1-c1cc(-c2cccnc2)on1" : 16.1

// zone of inhibition at 100 µg/mL value for NC[C@@H]1O[C@H](O[C@H]2[C@@H](O)[C@H](O[C@@H]3[C@@H](O)[C@H](N)C[C@H](N)[C@H]3O[C@H]3O[C@H](CN)[C@@H](O)[C@H](O)[C@H]3N)O[C@@H]2CO)[C@H](N)[C@@H](O)[C@@H]1O [FRAMYCETIN] : 25.8

---

test system: Muscodor albus; assay: Antibacterial activity against Muscodor albus at 100 ug/ml after 24 hrs; assay type: functional; details: read-out: DIZ
Below, each entry is listed alongside its reported zone of inhibition at 100 µg/mL.
Please respond with the number in mm and leave the unit unwritten.

Use these answered entries as a reference point.
O=C(CC(=O)c1cc(C(=O)CC(=O)c2ccccc2)c(O)cc1O)c1ccccc1 ... 15.2
CC[C@H]1OC(=O)[C@H](C)[C@@H](O[C@H]2C[C@@](C)(OC)[C@@H](O)[C@H](C)O2)[C@H](C)[C@@H](O[C@@H]2O[C@H](C)C[C@H](N(C)C)[C@H]2O)[C@](C)(O)C[C@@H](C)C(=O)[C@H](C)[C@@H](O)[C@]1(C)O ... 26.1
Oc1cc(O)c(-c2cc(-c3cccs3)on2)cc1-c1cc(-c2cccs2)on1 ... 16

// zone of inhibition at 100 µg/mL value for "Oc1cc(O)c(-c2cc(-c3ccccc3)[nH]n2)cc1-c1cc(-c2ccccc2)[nH]n1" : 14

// zone of inhibition at 100 µg/mL value for "COc1ccc(-c2cc(-c3cc(-c4cc(-c5ccc(OC)cc5)[nH]n4)c(O)cc3O)n[nH]2)cc1" : 14.4

// zone of inhibition at 100 µg/mL value for "Oc1cc(O)c(-c2cc(-c3cccnc3)[nH]n2)cc1-c1cc(-c2cccnc2)[nH]n1" : 15.3

// zone of inhibition at 100 µg/mL value for "O=C(CC(=O)c1cc(C(=O)CC(=O)c2cccnc2)c(O)cc1O)c1cccnc1" : 15.7

// zone of inhibition at 100 µg/mL value for "Oc1cc(O)c(-c2cc(-c3ccc(Cl)cc3)on2)cc1-c1cc(-c2ccc(Cl)cc2)on1" : 15

---

tested on: Proteus vulgaris; experiment: Antibacterial activity against Proteus vulgaris at 100 ug/ml after 24 hrs; assay type: functional; details: read-out: DIZ
RECORDED_METRIC: zone of inhibition at 100 µg/mL (mm)
Please respond with the number in mm and leave the unit unwritten.

Oc1cc(O)c(-c2cc(-c3cccnc3)[nH]n2)cc1-c1cc(-c2cccnc2)[nH]n1 ... 15.4

Kindly review the next compound as well.
// zone of inhibition at 100 µg/mL value for "Cc1ccc(-c2cc(-c3cc(-c4cc(-c5ccc(C)cc5)[nH]n4)c(O)cc3O)n[nH]2)cc1" : 15.7

---

test system: Muscodor albus; assay: Antibacterial activity against Muscodor albus at 100 ug/ml after 24 hrs; format: functional; conditions: read-out: DIZ
Below, each entry is listed alongside its reported zone of inhibition at 100 µg/mL.
Please respond with the number in mm and leave the unit unwritten.

Use these answered entries as a reference point.
O=C(CC(=O)c1cc(C(=O)CC(=O)c2cccs2)c(O)cc1O)c1cccs1 ... 14.9
COc1ccc(-c2cc(-c3cc(-c4cc(-c5ccc(OC)cc5)on4)c(O)cc3O)no2)cc1 ... 15.9
Cc1ccc(C(=O)CC(=O)c2cc(C(=O)CC(=O)c3ccc(C)cc3)c(O)cc2O)cc1 ... 13.1
Oc1cc(O)c(-c2cc(-c3ccc(Cl)cc3)[nH]n2)cc1-c1cc(-c2ccc(Cl)cc2)[nH]n1 ... 15.7
COc1ccc(C(=O)CC(=O)c2cc(C(=O)CC(=O)c3ccc(OC)cc3)c(O)cc2O)cc1 ... 16.1

Kindly review the next compound as well.
// zone of inhibition at 100 µg/mL value for "Oc1cc(O)c(-c2cc(-c3cccs3)[nH]n2)cc1-c1cc(-c2cccs2)[nH]n1" : 11.7

---

tested on: Proteus vulgaris; assay: Antibacterial activity against Proteus vulgaris at 100 ug/ml after 24 hrs; format: functional; conditions: read-out: DIZ
RECORDED_METRIC: zone of inhibition at 100 µg/mL (mm)
Please respond with the number in mm and leave the unit unwritten.

O=C(CC(=O)c1cc(C(=O)CC(=O)c2ccccc2)c(O)cc1O)c1ccccc1 ... 13.3
Oc1cc(O)c(-c2cc(-c3ccc(Cl)cc3)[nH]n2)cc1-c1cc(-c2ccc(Cl)cc2)[nH]n1 ... 15.7
COc1ccc(-c2cc(-c3cc(-c4cc(-c5ccc(OC)cc5)on4)c(O)cc3O)no2)cc1 ... 15.4

// zone of inhibition at 100 µg/mL value for "Oc1cc(O)c(-c2cc(-c3cccnc3)on2)cc1-c1cc(-c2cccnc2)on1" : 11.9

// zone of inhibition at 100 µg/mL value for "Oc1cc(O)c(-c2cc(-c3ccc(Cl)cc3)on2)cc1-c1cc(-c2ccc(Cl)cc2)on1" : 13.2

// zone of inhibition at 100 µg/mL value for "Cc1ccc(-c2cc(-c3cc(-c4cc(-c5ccc(C)cc5)on4)c(O)cc3O)no2)cc1" : 11.4

// zone of inhibition at 100 µg/mL value for "Oc1cc(O)c(-c2cc(-c3cccs3)[nH]n2)cc1-c1cc(-c2cccs2)[nH]n1" : 15.3

// zone of inhibition at 100 µg/mL value for CC[C@H]1OC(=O)[C@H](C)[C@@H](O[C@H]2C[C@@](C)(OC)[C@@H](O)[C@H](C)O2)[C@H](C)[C@@H](O[C@@H]2O[C@H](C)C[C@H](N(C)C)[C@H]2O)[C@](C)(O)C[C@@H](C)C(=O)[C@H](C)[C@@H](O)[C@]1(C)O [ERYTHROMYCIN] : 25.1

// zone of inhibition at 100 µg/mL value for "Oc1cc(O)c(-c2cc(-c3ccccc3)[nH]n2)cc1-c1cc(-c2ccccc2)[nH]n1" : 15.2
